B1: POU domain, class 2, transcription factor 1, residues 285 to 354; numbered along this chain, P14859 (parent)
chain: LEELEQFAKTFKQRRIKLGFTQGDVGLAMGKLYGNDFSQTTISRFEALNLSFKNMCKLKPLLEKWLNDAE

Variants of: B1
test.method.notes: abundance fitness (aPCA) (normalised: wild type 0, dead -1); higher = more abundant; growth selection in yeast, the domain comes from the species named
experimental.conditions: Homo sapiens
Provide the reported abundance fitness of each item.
The response must contain the number and no unit.

Ask: Report measured abundance fitness; entry is N49R
Reply: -0.079

Ask: Give abundance fitness for the following variant: R15E
Reply: -0.971

Ask: Query abundance fitness for E46T
Reply: -0.934

Ask: Tell us which abundance fitness value is on record for F45K
Reply: -0.97

Ask: Tell me its abundance fitness given W65T as the entry.
Reply: -0.294

Ask: Output abundance fitness of E46N
Reply: -0.783

Ask: Supply reported abundance fitness belonging to this variant: E3A
Reply: -0.143

Ask: Consider the variant L50I and give its recorded abundance fitness.
Reply: -0.135

Ask: Specify measured abundance fitness for F45N .
Reply: -1.04

Ask: Respond only with abundance fitness recorded for G34A
Reply: -0.027

Ask: State its abundance fitness for this variant: K31P
Reply: -0.115

Ask: Note abundance fitness for the variant shown: K57P
Reply: -0.451

Ask: Answer with reported abundance fitness of P60M
Reply: -0.065

Ask: Provide one value: measured abundance fitness of L50W
Reply: -0.148

Ask: Please look at this variant and report its abundance fitness: C56M
Reply: 0.034

Ask: Answer with the recorded abundance fitness of A8K only.
Reply: -0.72

Ask: Give reported abundance fitness value for N54D
Reply: 0.08

Ask: Specify abundance fitness for L1V and stop.
Reply: -0.026

Ask: Give abundance fitness for C56Q
Reply: 0.063

Ask: Please supply the value of reported abundance fitness for the item I42G
Reply: -1.09

Ask: Name the recorded abundance fitness of the variant listed here: S51Y
Reply: -0.496

Ask: Report abundance fitness, nothing else, for this variant: G26T
Reply: -0.038
